test system: MCF7 breast; assay: NCI-60 one-dose screen, 48 h (100 = growth as untreated, 0 = no growth, -100 = all killed); details: 10 µM unless noted
The panel holds about 83,000 compounds, 20% with a hit somewhere; the sample as a whole holds those more often.
growth vs 20%: at or above is class 1, below is class 0.

input: Does the molecule COc1ccc(/C=C2\CN(C(=O)C(Cl)Cl)C/C(=C\c3ccc(OC)cc3)C2=O)cc1 have recorded growth that is 20% or more?
output: class 0

input: Does the molecule Cc1nc2sc(C(=O)Nc3cccc(Br)c3C)c(N)c2cc1C(O)c1ccccc1 (stereo not drawn) have recorded growth that is 20% or more?
output: class 0

input: Does the molecule COc1ccc(CCN(CC(=O)N(CC(N)=O)C2CCC[C@@H]2OCc2ccccc2)C(=O)CN(C(=O)CN(CCc2ccc(Cl)cc2)C(=O)CN(C(=O)CN(C)Cc2ccccc2F)[C@H](C)C2CCCCC2)[C@H](C)C2CCCCC2)cc1OC (stereo partly drawn) have recorded growth that is 20% or more?
output: class 0

input: Does the molecule C=C(C)[C@@H]1CC[C@]2(C(N)=O)CC[C@]3(C)[C@H](CC[C@@H]4[C@@]5(C)CC[C@H](OCCC#N)C(C)(C)[C@@H]5CC[C@]43C)[C@@H]12 have recorded growth that is 20% or more?
output: class 1

input: Does the molecule COc1cc2c(c(OC)c1OC)C(=O)CC(c1cccc(NC(=O)c3ccc(C#N)cc3)c1)O2 (stereo not drawn) have recorded growth that is 20% or more?
output: class 1

input: Does the molecule Cc1ccc(C)c(/C=C2\CN(C(=O)OC(C)(C)C)C/C(=C\c3cc(C)ccc3C)C2=O)c1 have recorded growth that is 20% or more?
output: class 1

input: Does the molecule CCN1C(=O)N(CC)C2C1NN=c1s/c(=C3\C(=O)N(CC(C)C)c4ccccc43)c(=O)n12 (stereo not drawn) have recorded growth that is 20% or more?
output: class 0

input: Does the molecule Oc1c(CN2CCC(N3CCCCC3)CC2)cc(Cc2cc(CN3CCC(N4CCCCC4)CC3)c(O)c3ncccc23)c2cccnc12 have recorded growth that is 20% or more?
output: class 0

input: Does the molecule Cc1ccc(Cl)cc1NC(=O)c1sc2nc3c(cc2c1N)C(=O)CCC3 have recorded growth that is 20% or more?
output: class 1

input: Does the molecule O=C(/C=C(O)/C=C/c1cccc2[nH]ccc12)/C=C/c1cccc2[nH]ccc12 have recorded growth that is 20% or more?
output: class 0

input: Does the molecule O=C(CCCCCCN1CC(=O)N2[C@H](c3ccc(Br)cc3)c3[nH]c4ccccc4c3C[C@@H]2C1=O)NO have recorded growth that is 20% or more?
output: class 1

input: Does the molecule CC(=O)OC[C@]12CC[C@@H]([C@@H](C)c3nnc(-c4ccncc4)o3)[C@@H]1[C@H]1CC[C@@H]3[C@@]4(C)CC[C@H](OC(C)=O)C(C)(C)[C@@H]4CC[C@@]3(C)[C@]1(C)CC2 have recorded growth that is 20% or more?
output: class 1

input: Does the molecule O=C(N/N=C/c1cc(Cl)ccc1O)c1ccccc1Nc1ccnc(C(F)(F)F)c1 have recorded growth that is 20% or more?
output: class 1

input: Does the molecule COc1ccc(/C=C/c2ccc3ccccc3n2)c(OC)c1 have recorded growth that is 20% or more?
output: class 1

input: Does the molecule Cc1ccc(S(=O)(=O)c2nc(-c3ccccc3)oc2Sc2nc3ccccc3s2)cc1 have recorded growth that is 20% or more?
output: class 1

input: Does the molecule O=C(Nc1cc(Cl)ccc1O)c1cccc(Nc2ccnc(C(F)(F)F)c2)c1 have recorded growth that is 20% or more?
output: class 1

input: Does the molecule Cc1ccc(-c2csc(NC(=O)c3ccccc3CN3C(=O)c4ccccc4C3=O)n2)cc1 have recorded growth that is 20% or more?
output: class 1

input: Does the molecule C=C1C(=O)O[C@H]2[C@H]1CC/C(COC(=O)c1ccc(C(=O)O)s1)=C\CC[C@@]1(C)O[C@@H]21 have recorded growth that is 20% or more?
output: class 0
